Assay: Elimination half life value after intravenous administration in rats
Assay type: ADME, organism-based
Conditions: rat, in vivo
Exercise: for every item that follows, state its recorded half-life.

input: Annotate the compound CCCCCCC/N=C(\S)c1cccnc1S with its measured half-life.
output: 28 min

input: Annotate the compound CC/N=C(\S)c1cccnc1S with its measured half-life.
output: 37.2 min

====

Test system: Mycobacterium avium
Assay: In Vitro antimicrobial activity against the Mycobacterium avium complex (MAC) Wild type strain ISS 486
Format: functional
Exercise: for every item that follows, state its recorded MIC.

input: Supply MIC measured with Mycobacterium avium for CC/N=C(\S)c1cccnc1S .
output: 4 µg/mL

input: Supply MIC measured with Mycobacterium avium for C/N=C(\S)c1cccnc1S .
output: 4 µg/mL

input: Supply MIC measured with Mycobacterium avium for CCCCCCCC/N=C(\S)c1cccnc1S .
output: 8 µg/mL

input: Supply MIC measured with Mycobacterium avium for CCCCCCC/N=C(\S)c1cccnc1S .
output: 4 µg/mL

input: Supply MIC measured with Mycobacterium avium for CC[C@@H](CO)NCCN[C@@H](CC)CO .
output: 2 µg/mL

input: Supply MIC measured with Mycobacterium avium for S/C(=N\C1CCCCC1)c1cccnc1S .
output: 4 µg/mL

input: Supply MIC measured with Mycobacterium avium for CCCCCC/N=C(\S)c1cccnc1S .
output: 0.5 µg/mL

input: Supply MIC measured with Mycobacterium avium for CCCCCCCCC/N=C(\S)c1cccnc1S .
output: 8 µg/mL

input: Supply MIC measured with Mycobacterium avium for CCCC/N=C(\S)c1cccnc1S .
output: 2 µg/mL

input: Supply MIC measured with Mycobacterium avium for CCC/N=C(\S)c1cccnc1S .
output: 1 µg/mL

input: Supply MIC measured with Mycobacterium avium for CCCCCCCCCCCCCCCC/N=C(\S)c1cccnc1S .
output: 8 µg/mL

input: Supply MIC measured with Mycobacterium avium for CCCCC/N=C(\S)c1cccnc1S .
output: 1 µg/mL

input: Supply MIC measured with Mycobacterium avium for CCCCCCCCCC/N=C(\S)c1cccnc1S .
output: 32 µg/mL

input: Supply MIC measured with Mycobacterium avium for OCC/N=C(\S)c1cccnc1S .
output: 8 µg/mL

input: Supply MIC measured with Mycobacterium avium for CCCCCCCCCCCCCCCCCC/N=C(\S)c1cccnc1S .
output: 32 µg/mL

====

Tested on: Mycobacterium tuberculosis
Test: In Vitro antimicrobial activity against the Mycobacterium tuberculosis (MT) strain H-37-Rv ATCC
Type: functional
readout-type: MIC

input: Supply MIC measured with Mycobacterium tuberculosis for CCCCCCCCCCCCCCCC/N=C(\S)c1cccnc1S .
output: 16 µg/mL

input: Supply MIC measured with Mycobacterium tuberculosis for CCCCCCNC(=O)c1cccnc1S .
output: 8 µg/mL

input: Supply MIC measured with Mycobacterium tuberculosis for CCCCCCCCCC/N=C(\S)c1cccnc1S .
output: 16 µg/mL

input: Supply MIC measured with Mycobacterium tuberculosis for CCCCCCCCC/N=C(\S)c1cccnc1S .
output: 4 µg/mL

input: Supply MIC measured with Mycobacterium tuberculosis for CCCCCCC/N=C(\S)c1cccnc1S .
output: 0.5 µg/mL

input: Supply MIC measured with Mycobacterium tuberculosis for CC[C@@H](CO)NCCN[C@@H](CC)CO .
output: < 2 µg/mL

input: Supply MIC measured with Mycobacterium tuberculosis for CCCCCC/N=c1\ssc2ncccc12.CCCCCCn1sc2ncccc2c1=S .
output: 4 µg/mL
